- system tested: human GR (Homo sapiens)
- assay explanation: Trans-Activation Modulation of Glucocorticoid Receptor (GRAMMER), MMTV-LUC reporter gene
- Assay type: cell-based
- Design: endogenous in cells
- condition: A549; read-out: Transactivation A549 Cells GRAMMER Emax (%)
property name: Emax (%)
Output spec: scalar in %, unitless text.

Example entries and their recorded answers appear below.
Incoming: Emax lookup needed for C[C@]12Cc3cnn(-c4ccc(F)cc4)c3C=C1CC[C@@]2(O)CCc1cccc(F)c1[C@H](N)C(F)(F)F [Example 151] , thanks.
Outgoing: 43

Incoming: Same question for CC(C)C(O)(C(N)=O)c1ccccc1CC[C@]1(O)CCC2=Cc3c(cnn3-c3ccc(F)cc3)C[C@@]21C (stereo partly drawn) [Example 201] please.
Outgoing: 40

Incoming: What do you have for C[C@]12Cc3cnn(-c4ccc(F)cc4)c3C=C1CC[C@@]2(O)CCc1ccccc1S(=O)(=O)C1CC1 [Example 144] ?
Outgoing: 40

Incoming: Try the compound CC(O)(C(N)=O)c1ccccc1CC[C@]1(O)CCC2=Cc3c(cnn3-c3ccc(F)cc3)C[C@@]21C (single isomer, unassigned) [Example 150]
Outgoing: 38

Incoming: Now consider C[C@]12Cc3cnn(-c4ccc(F)cc4)c3C=C1CC[C@@]2(O)CCc1cccc(F)c1[C@@H](N)C(F)(F)F [Example 152] .
Outgoing: 44

Others:
Incoming: I have this compound here, COc1cccc(CC[C@]2(O)CCC3=Cc4c(cnn4-c4ccc(F)cc4)C[C@@]32C)c1C(N)=O [Example 189] , and I need its recorded Emax.
Outgoing: 49

Incoming: Repeat with Cc1cccc(CC[C@]2(O)CCC3=Cc4c(cnn4-c4cccc(F)c4)C[C@@]32C)c1C(N)=O [Example 191]
Outgoing: 49

Incoming: What would you report for C[C@]12Cc3cnn(-c4ccc(F)cc4)c3C=C1CC[C@@]2(O)CCc1ccccc1NS(=O)(=O)C1CC1 [Example 15] ?
Outgoing: 43

Incoming: Same question for C[C@]12Cc3cnn(-c4ccc(Cl)cc4)c3C=C1CC[C@@]2(O)CCc1cccc(F)c1C(N)=O [Example 185] please.
Outgoing: 39

====

- system tested: human GR (Homo sapiens)
- assay explanation: Trans-Activation Modulation of Glucocorticoid Receptor (GRAMMER), MMTV-LUC reporter gene
- Assay type: cell-based
- Set-up: endogenous in cells
- condition: A549; read-out: Transactivation A549 Cells GRAMMER Emax (%)
Overview of recorded Emax for various compounds
Give the value, in units of %, as a plain number.

Incoming: I'm curious: which Emax was measured for CC(C)CNC(=O)c1c(F)cccc1CC[C@]1(O)CCC2=Cc3c(cnn3-c3ccc(F)cc3)C[C@@]21C [Example 61] tested on human GR (Homo sapiens)?
Outgoing: 35

Next:
Incoming: Lab note: need Emax for C=C(C)CNC(=O)c1c(F)cccc1CC[C@]1(O)CCC2=Cc3c(cnn3-c3ccc(F)cc3)C[C@@]21C [Example 44] on human GR (Homo sapiens), anyone have it?
Outgoing: 24

Incoming: Now the compound C[C@]12Cc3cnn(-c4ccccc4)c3C=C1CC[C@@]2(O)CCc1ccccc1C(=O)NC1CC1 [Example 42]
Outgoing: 51

Incoming: Please do the same for CC(C)[C@@H](C)NC(=O)c1c(F)cccc1CC[C@]1(O)CCC2=Cc3c(cnn3-c3ccc(F)cc3)C[C@@]21C [Example 48] as well.
Outgoing: 13

Incoming: Same lookup for CN(C)S(=O)(=O)Nc1c(F)cccc1CC[C@]1(O)CCC2=Cc3c(cnn3-c3ccc(F)cc3)C[C@@]21C [Example 113] , please.
Outgoing: 32

Incoming: Do the same for C[C@]12Cc3cnn(-c4ccc(F)cc4)c3C=C1CC[C@@]2(O)CCc1cccc(F)c1CNS(=O)(=O)C1CC1 [Example 88] please
Outgoing: 32

Incoming: Check CC(C)(C)NC(=O)c1ccccc1CC[C@]1(O)CCC2=Cc3c(cnn3-c3ccc(F)cc3)C[C@@]21C [Example 62] too.
Outgoing: 23

Incoming: Would you kindly repeat that for C[C@]12Cc3cnn(-c4ccc(F)cc4)c3C=C1CC[C@@]2(O)CCc1ccccc1N1CCC1=O [Example 11] ?
Outgoing: 39

Incoming: Subsequent entry: CC(CNC(=O)c1c(F)cccc1CC[C@]1(O)CCC2=Cc3c(cnn3-c3ccc(F)cc3)C[C@@]21C)C(F)(F)F (some centres unmarked) [Example 38]
Outgoing: 15

Incoming: Would you kindly repeat that for C=CCNC(=O)c1ccccc1CC[C@]1(O)CCC2=Cc3c(cnn3-c3ccc(F)cc3)C[C@@]21C [Example 33] ?
Outgoing: 37

Incoming: Please answer likewise for CC(C)S(=O)(=O)NCc1c(F)cccc1CC[C@]1(O)CCC2=Cc3c(cnn3-c3ccc(F)cc3)C[C@@]21C [Example 83]
Outgoing: 21

Incoming: What would you report for CC(=O)Cc1ccccc1CC[C@]1(O)CCC2=Cc3c(cnn3-c3ccc(F)cc3)C[C@@]21C [Example 157] ?
Outgoing: 45

Incoming: Same thing, different compound: CC1(NC(=O)c2ccccc2CC[C@]2(O)CCC3=Cc4c(cnn4-c4ccc(F)cc4)C[C@@]32C)CC1 [Example 28]
Outgoing: 28

Incoming: Also check CCC(O)(C(N)=O)c1ccccc1CC[C@]1(O)CCC2=Cc3c(cnn3-c3ccc(F)cc3)C[C@@]21C (some centres unmarked) [Example 199]
Outgoing: 36

====

Below, each of the compounds is paired with its reported Emax value.
- system tested: human GR (Homo sapiens)
- assay explanation: Transrepression Assay (GITAR), TNFα-β-lactamase reporter gene in U937 cells
- Assay type: cell-based
- Parameters: U937 cells contain an endogenous glucocorticoid receptor (GR); endogenous in cells; host or cells: U937 cells stably transfected with the TNF-α promoter/β-lactamase reporter only
- condition: U-937; Table 1; U937 cells; activity repressed by 100 nM dexamethasone = 100%; read-out: Transrepression U937 Cells GITAR Emax (%)
Numbers only; they are read as %.

Incoming: Could you tell me which Emax is on file for "C[C@H](CNC(=O)c1ccccc1CC[C@]1(O)CCC2=Cc3c(cnn3-c3ccc(F)cc3)C[C@@]21C)C(F)(F)F" ?
Outgoing: 70

Incoming: Also need "CC1(NC(=O)c2ccccc2CC[C@]2(O)CCC3=Cc4c(cnn4-c4ccc(F)cc4)C[C@@]32C)CC1" , thanks.
Outgoing: 72

Okay, now this compound:
Incoming: Query (compound): "C[C@]12Cc3cnn(-c4ccccc4)c3C=C1CC[C@@]2(O)CCc1ccccc1C(N)=O" ; field requested: Emax
Outgoing: 68

====

- system tested: human GR (Homo sapiens, UniProt P04150)
- assay explanation: Transrepression Assay (GITAR), TNFα-β-lactamase reporter gene in U937 cells
- Assay type: cell-based
- Design: U937 cells contain an endogenous glucocorticoid receptor (GR); endogenous in cells; host or cells: U937 cells stably transfected with the TNF-α promoter/β-lactamase reporter only
- condition: U-937; Table 1; U937 cells; activity repressed by 100 nM dexamethasone = 100%; read-out: Transrepression U937 Cells GITAR Emax (%)
The reader will find reported Emax values listed item by item below.
Return type: number; implicit unit %.

Incoming: Item CC(C(N)=O)c1ccccc1CC[C@]1(O)CCC2=Cc3c(cnn3-c3ccc(F)cc3)C[C@@]21C (single isomer, unassigned) with human GR (Homo sapiens, UniProt P04150) - Emax?
Outgoing: 40

Incoming: Same thing, different compound: "CC1(NC(=O)c2ccccc2CC[C@]2(O)CCC3=Cc4c(cnn4-c4ccccc4)C[C@@]32C)CC1"
Outgoing: 54

Incoming: What about "CCS(=O)(=O)Nc1ccccc1CC[C@]1(O)CCC2=Cc3c(cnn3-c3ccc(F)cc3)C[C@@]21C" ?
Outgoing: 78

Incoming: Next compound up: "C[C@]12Cc3cnn(-c4ccc(F)cc4)c3C=C1CC[C@@]2(O)CCc1cccc(Cl)c1CC(N)=O"
Outgoing: 67

Incoming: What do you have for C[C@]12Cc3cnn(-c4ccc(F)cc4)c3C=C1CC[C@@]2(O)CCc1ccccc1C(F)C(N)=O (single isomer, unassigned) ?
Outgoing: 52

Incoming: Would you kindly repeat that for "C=CCNC(=O)c1c(F)cccc1CC[C@]1(O)CCC2=Cc3c(cnn3-c3ccc(F)cc3)C[C@@]21C" ?
Outgoing: 77

Incoming: Repeat for the following compound: "C[C@]12Cc3cnn(-c4ccc(F)cc4)c3C=C1CC[C@@]2(O)CCc1ccccc1CC(N)=O"
Outgoing: 66

Incoming: Now try "CC(C)[C@@H](C)NC(=O)c1c(F)cccc1CC[C@]1(O)CCC2=Cc3c(cnn3-c3ccc(F)cc3)C[C@@]21C" .
Outgoing: 72

--- query ---
Incoming: Any idea what Emax came out for "CC(=O)Nc1ccccc1CC[C@]1(O)CCC2=Cc3c(cnn3-c3ccc(F)cc3)C[C@@]21C" on human GR (Homo sapiens, UniProt P04150)?
Outgoing: 79

====

- system tested: human GR (Homo sapiens)
- Sequence (P04150 1-777): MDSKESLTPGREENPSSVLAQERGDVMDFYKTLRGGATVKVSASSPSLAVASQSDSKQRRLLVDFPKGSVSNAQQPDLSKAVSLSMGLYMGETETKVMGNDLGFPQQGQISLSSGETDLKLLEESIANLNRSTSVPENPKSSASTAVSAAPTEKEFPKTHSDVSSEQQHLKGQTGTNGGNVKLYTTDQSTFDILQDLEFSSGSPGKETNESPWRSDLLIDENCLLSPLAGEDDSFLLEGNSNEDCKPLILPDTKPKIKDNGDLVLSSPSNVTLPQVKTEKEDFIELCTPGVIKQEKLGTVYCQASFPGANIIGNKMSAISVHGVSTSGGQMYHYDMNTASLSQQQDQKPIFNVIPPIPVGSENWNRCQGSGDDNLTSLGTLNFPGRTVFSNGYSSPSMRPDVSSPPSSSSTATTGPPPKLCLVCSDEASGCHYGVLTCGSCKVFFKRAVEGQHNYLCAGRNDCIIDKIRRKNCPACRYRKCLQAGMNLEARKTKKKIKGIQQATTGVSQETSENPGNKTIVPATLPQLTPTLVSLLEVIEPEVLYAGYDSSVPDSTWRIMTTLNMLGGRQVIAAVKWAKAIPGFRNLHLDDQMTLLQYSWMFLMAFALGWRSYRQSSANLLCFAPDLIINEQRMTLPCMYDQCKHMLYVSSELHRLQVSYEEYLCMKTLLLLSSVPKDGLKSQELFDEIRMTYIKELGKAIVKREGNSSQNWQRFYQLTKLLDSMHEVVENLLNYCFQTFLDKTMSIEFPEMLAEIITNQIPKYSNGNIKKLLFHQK
- assay explanation: Trans-Activation Modulation of Glucocorticoid Receptor (GRAMMER), MMTV-LUC reporter gene
- Type: cell-based
- Set-up: endogenous in cells
- condition: Table 1; A549 cells; IP = inflection point; read-out: Transactivation A549 Cells GRAMMER IP
property name: EC50
Answers without a unit are incomplete; give the number and then its unit.

Incoming: Bench note: what EC50 did "C[C@]12Cc3cnn(-c4ccc(F)c(F)c4)c3C=C1CC[C@@]2(O)CCc1cccc(F)c1C(N)=O" show?
Outgoing: 53 nM

Incoming: Same read-out for "CN(C)S(=O)(=O)NCc1c(F)cccc1CC[C@]1(O)CCC2=Cc3c(cnn3-c3ccc(F)cc3)C[C@@]21C" ?
Outgoing: 43 nM

Incoming: And then C[C@]12Cc3cnn(-c4ccc(F)cc4)c3C=C1CC[C@@]2(O)CCc1ccccc1C(F)C(N)=O (single isomer, unassigned) , what is it?
Outgoing: 187 nM

Incoming: Another compound to check: "COC(=O)C(C)(C)NC(=O)c1c(F)cccc1CC[C@]1(O)CCC2=Cc3c(cnn3-c3ccc(F)cc3)C[C@@]21C"
Outgoing: 46 nM

Incoming: Another compound to check: CC(C(N)=O)c1ccccc1CC[C@]1(O)CCC2=Cc3c(cnn3-c3ccc(F)cc3)C[C@@]21C (single isomer, unassigned)
Outgoing: 253 nM

***
Incoming: Endpoint output: EC50 of "C[C@]12Cc3cnn(-c4ccc(F)cc4)c3C=C1CC[C@@]2(O)CCc1cccc(F)c1[C@@H](N)C(F)(F)F" . Value?
Outgoing: 223 nM

Incoming: Then "CCCNC(=O)c1c(F)cccc1CC[C@]1(O)CCC2=Cc3c(cnn3-c3ccc(F)cc3)C[C@@]21C" ?
Outgoing: 26 nM

Incoming: Also, "C[C@]12Cc3cnn(-c4ccc(F)cc4)c3C=C1CC[C@@]2(O)CCc1cccc(F)c1CC(N)=O" please.
Outgoing: 99 nM

Incoming: Same read-out for CCC(O)(C(N)=O)c1ccccc1CC[C@]1(O)CCC2=Cc3c(cnn3-c3ccc(F)cc3)C[C@@]21C (stereo partly shown) ?
Outgoing: 83 nM

Incoming: Try "CC1(NC(=O)c2ccccc2CC[C@]2(O)CCC3=Cc4c(cnn4-c4ccccc4)C[C@@]32C)CC1" next.
Outgoing: 128 nM

All values here come from patent US8119681B2.
